Values were extracted from BigSolDB 2.1.

Settings: in PEG-400, 308.15 K
measure: solubility (mole fraction)

*Q* Using the record for O=C1Nc2ccccc2C1=O , report its solubility (mole fraction).
*A* 0.109

* * *

Conditions: in transcutol, 328.15 K
measure: solubility (mole fraction)
Just the number, please, no unit after it.

*Q* Using the record for O=C1Nc2ccccc2C1=O , report its solubility (mole fraction).
*A* 0.581

* * *

Settings: in ethyl acetate, 298.15 K
measure: solubility (mole fraction)
Just the number, please, no unit after it.

*Q* Using the record for O=C1Nc2ccccc2C1=O , report its solubility (mole fraction).
*A* 0.00568

* * *

Conditions: in propylene glycol, 338.15 K
measure: solubility (mole fraction)
Just the number, please, no unit after it.

*Q* Using the record for O=C1Nc2ccccc2C1=O , report its solubility (mole fraction).
*A* 0.0133
